Data provenance is the DeepSol protein solubility set.

Assay: soluble on expression in E. coli; label from the status in PepcDB or PDB records
measuredProperty: soluble on expression in E. coli

INSERT INTO results (sequencedata, reportedresult) VALUES
  ('LKPDPWADIETRFPVGSRHHARVRNFTNFGVFVEIEEGVDGLIHISDLSWTKKIKHPSEFTEVGADIEVQVIEIDKENRRLSLGHKQLEENPWDVFETVFTVGSIHEGTVIEVMDKGAVVSLPYGVEGFATPKHMVKEDGSQAVLEEKLPFKVIEFNKDAKRIIVSHSRVFEDEQKMAQREANAERKAEAKAAQKEAAAEAANPAQAVEKATLGDLGELAALKEKLSEN', 'not soluble'),
  ('NSSAQLLELCTEHGLSISSLMMANELSLASEEEVKAKLWNIWQTMKTCIERGYQKEGILPGGLKLRRRAPALYRRLKAEGRNNVDPLTAMDWVDLFALSVNEQNAAGDRVVTAPTNGAAGIIPAVLCYYDTFVQEVDIDVCARYLLTAAAIGILYKKNASISGAEVGCQGEVGVACSMAAGALTEIMGGTVEHVENAAEIGMEHNLGLTCDPVGGLVQVPCIERNAMGAIKAINASRMALRGDGNHKVSLDKVIKTMMDTGKDMRSKYKETAKGGLAVN', 'not soluble');

====

Assay: soluble on expression in E. coli; label from the status in PepcDB or PDB records
measuredProperty: soluble on expression in E. coli

INSERT INTO results (sequencedata, reportedresult) VALUES
  ('MKRADDFQQRRAHLANLSDEELQTRFWEMAEKIVDPLLDLGKKNTTPSIERSVLLRMGFSSLEAKAIVDKTMDRGLMGKGAGHIVYKIAKEKNISVREAGLALSEGKYWDDAIQIFKGGVK', 'soluble'),
  ('MGSDKIHHHHHHMSETEPTSEQPHIAITGGAGYIGSRVIYELQQAHPDWEITAIDNFYLGTVQSVGDVDIEHVDIRNRDRLEAALDGADVVMHLAAVSGVDDCEEKQDLAYEVNVQGTDNVAWFCRKTGAALIFPFSMAVIGDPQEFPITVDHPRDPLNWYGRTKLLNERDVETYADGAFPAHQFMISNLYGSHEIDGQTVSKGTVINFFVNRALAGETLTVYEPGTQSRNFIHVKDVARAYVDSCERLLEQLDRGETGVEKYEIASDEDPSVHTVAKLVRDIAADIADIDADVELVENPRGDDETLVDSFTVDTGRTTAALGWTPEHDVESAIRTALESANT', 'not soluble'),
  ('MGSDKIHHHHHHMNNFNNEIKLILQQYLEKFEAHYERVLQDDQYIEALETLMDDYSEFILNPIYEQQFNAWRDVEEKAQLIKSLQYITAQCVKQVEVIRARRLLDGQASTTGYFDNIEHCIDEEFGQCSIASNDKLLLVGSGAYPMTLIQVAKETGASVIGIDIDPQAVDLGRRIVNVLAPNEDITITDQKVSELKDIKDVTHIIFSSTIPLKYSILEELYDLTNENVVVAMRFGDGIKAIFNYPSQETAEDKWQCVNKHMRPQQIFDIALYKKAAIKVGITDV', 'not soluble'),
  ('MGSDKIHHHHHHMSDVYIFCLSMGSPTLNTRVLTNSMELKVGCCGFPVSMKRYFETFDVVEVQKTFYKPPEVKTAEKWRKSAPEDFEFTIKAWQVITHPPSSPTYKKAGIKFENCGFFRPTEVVFMAWEETKKIAKALKAEIIVFQTPKSFRDTAENMENMRAFFSSIDGSFTFCFEPRGWSEESVRAICEELDLVHVVDPFVSKQLYGEICYYRLHGFDYKHKYTDDELEKLLGIVDRDGYVMFNNVHMFDDALRFKKLVEREAKSK', 'not soluble'),
  ('MGSDKIHHHHHHMKELVNILDFLPEELGEKIKPMFRVKQIYQWIYQKYANNFSDMSSLPKDLRLELARNFHFSPVKCVKNEQSKDGSIKYLFELIDGLRVESVLLPMKEEKIDAEGKRISHARYTICVSSQVGCKSGCSFCLTAKGGLKRNLSAGEIVGQILWIKKQNNIPYERRVNIVYMGMGEPLDNLKNVSKAVKILAQNEGLAISPRRQTISTSGLAKQIKELGQMNLGVLLAISLHAVNDELRTELMPINKAYNIAAIMDAVREFPIDQRKRVMFEYLLIDGINDKLEHAKELVKLLNGIKAKVNLILFNPHEGSLYKRPSLENAIKFQDLLSNKGVTCTIRESKGLDISAACGQLKERAKEQ', 'not soluble');

Form field: reported soluble on expression in E. coli of AALAEIVAQLNIYQSQVELIQQQMEAVRATISELEILEKTLSDIQGKDGSETLVPVGAGSFIKAELKDTSEVIMSVGAGVAIKKNFEDAMESIKSQKNELESTLQKMGENLRAITDIMMKLSPQAEELLAAVA
soluble

Can you look up the measured soluble on expression in E. coli of MDAKVAFSPHSDANGRLDEIGADIDTAQSSVLFSLAFLGQMTRGAIGPALGRALERPEVHVMGIADAEVRAGNLGLNVLTPDNRRRVVRAAALTGNVPPPFLTEPSGLAGVDGNQRGTRMHHKFVVLDFDKPTARVYLGSYNFSNPADDENGENLVVVRDRTVATSYMIEALRMYDHYVFRVASEASDGPARPLEHHHHHH for me?
not soluble

Query: soluble on expression in E. coli; subject: MSLFLKDDSIQIREVWNDNLQEEMDLIRDVVDDFPYVAMDTEFPGIVVRPVGTFKSNADYHYETLKTNVNILKMIQLGLTFSNEQGNLPTCGTDKYCIWQFNFREFDLDSDIFALDSIELLKQSGIDLAKNTLDGIDSKRFAELLMSSGIVLNENVHWVTFHSGYDFGYLLKLLTCQNLPDSQTDFFKLINVYFPTVYDIKHLMKFCNSLHGGLNKLAELLEVERVGICHQAGSDSLLTSCTFRKLKENFFVGPLHKYSGVLYGLGVENGQVAI
soluble

Need soluble on expression in E. coli, item GPRRLSIEGNIAVGKSTFVKLLTKTYPEWHVATEPVATWQNIQAAGNQKACTAQSLGNLLDMMYREPARWSYTFQTFSFLSRLKVQLEPFPEKLLQARKPVQIFERSVYSDRYIFAKNLFENGSLSDIEWHIYQDWHSFLLWEFASRITLHGFIYLQASPQVCLKRLYQRAREEEKGIELAYLEQLHGQHEAWLIHKTTKLHFEALMNIPVLVLDVNDDFSEEVTKQEDLMREVNTFVKNL
soluble

Field request: soluble on expression in E. coli | item: MLDLLVVAPHPDDGELGCGGTLARAKAEGLSTGILDLTRGEMGSKGTPEEREKEVAEASRILGLDFRGNLGFPDGGLADVPEQRLKLAQALRRLRPRVVFAPLEADRHPDHTAASRLAVAAVHLAGLRKAPLEGEPFRVERLFFYPGNHPFAPSFLVKISAFIDQWEAAVLAYRSQFTGEAASETVGPKGVEARKAMRRYWGNYLGVDYAEPFVSPLPVLYVPWSRA
soluble

GET /values?readout=soluble on expression in E. coli&item= MLRSVPFDLVTRLMTTHFVSRQIFIGSGRVGIGEHSENAGYQLSQRADYFHMKVGLQTTFDRPIINTRDESHSTDEYRRLHVIVGDANRMDVPQALKLGTTSMLLWLLEHADMAEIDLNEALGPLTLADPVEAMHTVSHDLTLAAPLPLETGGTTTAWQMQVTLRGLVYAAAATVYGTDTSGEPAWPDRSTRNIMAMWGQALADVATVRHADDDGRLTMREQASRLEWLLKWQLLEKLRRKTGSDWTDRRLAAVDLKWAALDPADSIFTRLAGQTERLVTDKQLAEAVGQAPADTRAWLRAEIVRRFPEQVIAASWSHLTVRGESSGDENVENSMVSLDMSNPLKFTESLCSEAFERVHTASGIVESLR
not soluble

====

Experiment: soluble on expression in E. coli; label from the status in PepcDB or PDB records
measuredProperty: soluble on expression in E. coli

INSERT INTO results (sequencedata, reportedresult) VALUES
  ('MSLKITQIQAQNKNKNRRNVFVDGSYEFSCDMEIILKYKLKEGLEIDRTKLLQVIDQSKEEFAFRLALNYLSFKSRTSFEIYTYLLKKEYEEKIIEKVIEKLKYYRYVDDNQYVLNYIKTALAEGKKGKDRVQSDLINKKIPQDMIESHMHLFSCETNLEIAKELSNKYFKQNAHLPFNQFKNKLSQFLMRKGFNWEIINTCLNILEQDSEVQSHIDSNKELYVKEAIKLGNKYFVKYKAKETNPYLVEHKVKSHLYQKGYDKDTINLAFKKIIENSEGHHHHHH', 'not soluble'),
  ('HHHHHHHHHHMPPKGWRKDAQGNYPTTSYIKEQENITIQDLLFPKSTIVNLAREVPQQSGKKLLINKDASLALQRGATVFVNHLLLFAREIAKSQDKKSCSVDDVLSALDHIGHSALKGPVRDKLDEYQAAVEQRKKEKLDSGEVDADGDIDMGEDKENVPVEKVKEHDEIEEQGDALQDVEESSEKKQKTESQDVETRVQNLEQT', 'not soluble');
